experiment: Multiple-dose plasma PK of IV Compound A in patients with NT2; format: in vivo, human; conditions: human, plasma, intravenous, 112 mg, Cmpd A 112 mg; Day 7; read-out: Vss Mean
Property name: Vd (L)
Unit L implied. Number only.

Prompt line: # input compound: "COC(=O)N1CCC[C@H](NS(C)(=O)=O)[C@@H]1CO[C@H]1CC[C@@H](c2ccccc2)CC1" ; wanted: its Vd
Response line: 124

====

assay: Multiple-dose plasma PK of IV Compound A in patients with NT2; type: in vivo, human; details: human, plasma, intravenous, 112 mg, Cmpd A 112 mg; Day 1; read-out: AUCinf Mean
Property name: AUC(0-inf) (ng·h/mL)
Unit ng·h/mL implied. Number only.

Prompt line: # input molecule: "COC(=O)N1CCC[C@H](NS(C)(=O)=O)[C@@H]1CO[C@H]1CC[C@@H](c2ccccc2)CC1" ; wanted: its AUC(0-inf)
Response line: 1520

====

Assay: Plasma PK of Compound A after a single 9-hour IV infusion in sleep-deprived healthy male subjects
Type: in vivo, human
Conditions: male, human, plasma, iv, 112 mg, 112 mg [HD] single 9-hour IV infusion; read-out: CL (Mean) (converted)
Procedure: This was a phase 1b, single-center, randomized, double-blind, double-dummy, placebo- and active-controlled, 4-period Williams design crossover study to evaluate the PK, PD, and safety of Compound A in sleep-deprived healthy volunteers. Compound A was administered as a 9-hour IV infusion. […] During the day before dosing on Day 1, participants were administered the KSS at scheduled timepoints. […] Subject's vital signs, including BP, were monitored during the dosing and testing period. […]
Property name: clearance (mL/min)
Unit mL/min implied. Number only.

Prompt line: # input compound: COC(=O)N1CCC[C@H](NS(C)(=O)=O)[C@@H]1CO[C@H]1CC[C@@H](c2ccccc2)CC1 [Compound A] ; wanted: its clearance
Response line: 793

====

assay: Plasma PK of Compound A after a single 9-hour IV infusion in sleep-deprived healthy male subjects; format: in vivo, human; conditions: male, human, plasma, iv, 112 mg, 112 mg [HD] single 9-hour IV infusion; read-out: Vss (Median)
Property name: Vd (L)
Unit L implied. Number only.

Prompt line: # input molecule: "COC(=O)N1CCC[C@H](NS(C)(=O)=O)[C@@H]1CO[C@H]1CC[C@@H](c2ccccc2)CC1" ; wanted: its Vd
Response line: 112

====

test: Multiple-dose plasma PK of IV Compound A in patients with NT2; type: in vivo, human; details: human, plasma, intravenous, 44 mg, Cmpd A 44 mg; Day 7; read-out: AUClast Mean
Property name: AUC(0-t) (ng·h/mL)
Unit ng·h/mL implied. Number only.

Prompt line: # input compound: "COC(=O)N1CCC[C@H](NS(C)(=O)=O)[C@@H]1CO[C@H]1CC[C@@H](c2ccccc2)CC1" ; wanted: its AUC(0-t)
Response line: 660

====

assay: Multiple-dose plasma PK of IV Compound A in patients with NT2; format: in vivo, human; conditions: human, plasma, intravenous, 112 mg, Cmpd A 112 mg; Day 7; read-out: Cmax Mean
Property name: Cmax (ng/mL)
Unit ng/mL implied. Number only.

Prompt line: # input compound: COC(=O)N1CCC[C@H](NS(C)(=O)=O)[C@@H]1CO[C@H]1CC[C@@H](c2ccccc2)CC1 [Compound A] ; wanted: its Cmax
Response line: 173

These measurements were taken from patent US20220331303A1.
